Biological target: T1, full length human DLL3 with N-terminal HA tag, expressed on CHO cells (human, UniProt Q9NYJ7 27-618)
T1 construct: also called Human DLL3 complete ECD
T1 sequence: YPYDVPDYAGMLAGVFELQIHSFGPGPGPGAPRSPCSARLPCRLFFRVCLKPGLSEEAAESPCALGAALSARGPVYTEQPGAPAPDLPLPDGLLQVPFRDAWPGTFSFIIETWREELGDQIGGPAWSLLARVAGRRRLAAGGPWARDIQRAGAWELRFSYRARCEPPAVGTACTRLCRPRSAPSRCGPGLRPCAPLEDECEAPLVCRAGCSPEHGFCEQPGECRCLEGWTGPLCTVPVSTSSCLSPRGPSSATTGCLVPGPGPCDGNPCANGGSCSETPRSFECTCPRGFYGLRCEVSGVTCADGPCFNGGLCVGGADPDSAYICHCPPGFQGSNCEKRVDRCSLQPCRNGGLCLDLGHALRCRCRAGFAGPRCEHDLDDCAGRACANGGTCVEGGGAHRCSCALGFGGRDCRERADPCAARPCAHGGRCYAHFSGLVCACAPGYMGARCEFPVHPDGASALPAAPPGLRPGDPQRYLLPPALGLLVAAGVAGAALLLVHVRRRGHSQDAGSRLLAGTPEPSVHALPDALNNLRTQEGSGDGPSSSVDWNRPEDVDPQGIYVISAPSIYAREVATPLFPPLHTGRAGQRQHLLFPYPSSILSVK
Experiment: flow cytometry on CHO cells with full length and truncated human DLL3; column Binds to DLL3 Domain
MEASURED_PROPERTY: binding result

BINDER	EXPERIMENTAL_VALUE
anti-DLL3 antibody 9H12-K (antibody, V domains shown) VH: QVQLVQSGAEVKKPGASVKVSCKASGYTFTGYSIHWVRQAPGQGLEWMGWINPNSGGTFYAQKFQGRVTMTRDTSISTVYMELSRLRSDDTAVYYCARDGWGDYYYYGLDVWGQGTTVTVSL VL: DIQMTQSPSSVSASVGDRVTITCRASQDISSWLAWYQQKPGKAPKLLIYTASSLQGGVPSRFSGSGSGTDFTLTISSLQPEDLATYSCQQANVFPYTFGQGTKLEIK	binds
anti-DLL3 antibody 10G1-K (antibody, V domains shown) VH: EVQLLESGGGLVQPGGSLRLSCAASGFTFSSYAMNWVRQAPGKGLEWVSTISGSGGSTYYADSVKGRFTISRDNSKNTLYLQMNSLRAEDTAVFYCAIDPEYYDILTGGDYWGQGTLVTVSS VL: DIQMTQSPSAMSASVGDRVTITCRASQGISNYLAWFQQKPGKVPKRLIYAASSLQSGVPSRFSGSGSGTEFTLTISSLQPEDFATYFCLQHDSFPLTFGGGTKVEIK	binds
